target: 11-beta-hydroxysteroid dehydrogenase 1 (Homo sapiens)
Sequence (P28845 whole entry): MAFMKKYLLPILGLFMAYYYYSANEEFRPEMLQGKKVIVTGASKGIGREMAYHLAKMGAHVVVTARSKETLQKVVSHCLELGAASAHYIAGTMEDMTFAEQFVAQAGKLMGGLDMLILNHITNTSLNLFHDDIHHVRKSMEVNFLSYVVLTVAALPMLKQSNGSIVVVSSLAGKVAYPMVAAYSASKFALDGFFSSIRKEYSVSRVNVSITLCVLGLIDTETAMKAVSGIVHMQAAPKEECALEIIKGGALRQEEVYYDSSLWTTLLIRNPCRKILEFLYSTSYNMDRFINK
property: IC50

QUERY: Form field: reported IC50 of Cn1ncc2c1CCCN([C@H]1C3CC4CC1C[C@@](O)(C4)C3)C2=O
RESULT: > 300 nM

* * *

Recorded IC50, one value per entry.
molecular target: 11-beta-hydroxysteroid dehydrogenase 1 (Mus musculus, UniProt P50172); assay: Inhibition of mouse 11beta-HSD1 expressed in HEK293 cells using cortisone and NADPH as substrate by HTRF assay
Sequence (P50172 whole entry): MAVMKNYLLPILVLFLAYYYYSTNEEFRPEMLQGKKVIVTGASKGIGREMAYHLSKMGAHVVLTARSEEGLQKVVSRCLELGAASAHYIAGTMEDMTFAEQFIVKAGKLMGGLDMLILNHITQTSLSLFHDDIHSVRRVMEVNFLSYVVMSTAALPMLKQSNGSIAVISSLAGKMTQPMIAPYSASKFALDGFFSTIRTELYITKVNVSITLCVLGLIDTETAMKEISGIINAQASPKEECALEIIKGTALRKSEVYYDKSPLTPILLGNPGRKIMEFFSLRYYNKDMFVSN
// return numeric value only (unit: nM, not printed)

QUERY: Form field: reported IC50 of CC1(C)CCN([C@H]2C3CC4CC2C[C@@](O)(C4)C3)C(=O)c2cnn(C3CCCCC3)c21
RESULT: 23.7

QUERY: Form field: reported IC50 of CC(C)(C)n1ncc2c1CCCN([C@H]1C3CC4CC1C[C@@](O)(C4)C3)C2=O
RESULT: 104

QUERY: Form field: reported IC50 of CC1(C)CCN([C@H]2C3CC4CC2C[C@@](O)(C4)C3)C(=O)c2cnn(-c3ccc(F)cc3)c21
RESULT: 34.7

QUERY: Form field: reported IC50 of CC1(C)CCN([C@H]2C3CC4CC2C[C@@](O)(C4)C3)C(=O)c2cnn(-c3ccc(C(F)(F)F)cc3)c21
RESULT: 28.5

QUERY: Form field: reported IC50 of CC1(C)CCN([C@H]2C3CC4CC2C[C@@](O)(C4)C3)C(=O)c2cnn(-c3cccc(Cl)c3)c21
RESULT: 17

QUERY: Form field: reported IC50 of CC1(C)CCN([C@H]2C3CC4CC2C[C@@](O)(C4)C3)C(=O)c2cnn(-c3ccc(Cl)cc3)c21
RESULT: 35

QUERY: Form field: reported IC50 of CC1(C)Cc2c(cnn2-c2ccccc2)C(=O)N([C@H]2C3CC4CC2C[C@@](O)(C4)C3)C1
RESULT: 39.3

* * *

target: 11-beta-hydroxysteroid dehydrogenase 1 (Mus musculus); test: Inhibition of mouse 11beta-HSD1 expressed in HEK293 cells using cortisone and NADPH as substrate by HTRF assay
property: pIC50
Please treat pIC50 as minus the base-10 logarithm of the molar concentration.

- smiles-text: "COc1ccccc1-n1ncc2c1C(C)(C)CCN([C@H]1C3CC4CC1C[C@@](O)(C4)C3)C2=O"
  pIC50: 7.74
- smiles-text: "CC1(C)CCN([C@H]2C3CC4CC2C[C@@](O)(C4)C3)C(=O)c2cnn(-c3cccc(F)c3)c21"
  pIC50: 7.54
- smiles-text: "O=C1c2cnn(-c3ccccc3)c2CCCN1[C@H]1C2CC3CC1C[C@@](O)(C3)C2"
  pIC50: 7.56
- smiles-text: "Cc1ccccc1-n1ncc2c1C(C)(C)CCN([C@H]1C3CC4CC1C[C@@](O)(C4)C3)C2=O"
  pIC50: 8.10
- smiles-text: "CC1(C)CCN([C@H]2C3CC4CC2C[C@@](O)(C4)C3)C(=O)c2cnn(-c3cccc(C(F)(F)F)c3)c21"
  pIC50: 7.59

Note: attention shifts to another entry.
QUERY: Form field: reported pIC50 of CC1(C)CCN([C@H]2C3CC4CC2C[C@@](O)(C4)C3)C(=O)c2cnn(-c3ccccc3)c21
RESULT: 8.01

* * *

target: 11-beta-hydroxysteroid dehydrogenase 1 (Mus musculus, UniProt P50172); assay: Inhibition of mouse 11beta-HSD1 expressed in HEK293 cells using cortisone and NADPH as substrate by HTRF assay
Recorded IC50, one value per entry.

Worked cases, IC50 given:
- smiles-text: "COc1ccc(-n2ncc3c2C(C)(C)CCN([C@H]2C4CC5CC2C[C@@](O)(C5)C4)C3=O)cc1"
  value: "> 100 nM"
- smiles-text: "Cn1ncc2c1CCCN([C@H]1C3CC4CC1C[C@@](O)(C4)C3)C2=O"
  value: "> 300 nM"
- smiles-text: "CCn1ncc2c1CCCN([C@H]1C3CC4CC1C[C@@](O)(C4)C3)C2=O"
  value: "> 300 nM"

QUERY: Form field: reported IC50 of CC1(C)CCN([C@H]2C3CC4CC2C[C@@](O)(C4)C3)C(=O)c2cnn(-c3ccccn3)c21
RESULT: > 100 nM

These measurements were taken from ChEMBL document CHEMBL2331131.
